# tested_system: Ubiquitin-activating enzyme e1, putative (Leishmania donovani (strain BPK282A1))
# experiment_description: Leishmania donovani Ubiquitin Activating Enzyme (LdE1)
# Format: functional
# Design: scale not given: direction of the effect not stated beside the values
# recorded_conditions: 30 µM
Potency and affinity values are given separately.
experimental_endpoint: Percent Effect (%)
Answers are plain numbers, in %.

# annotated cases, reported Percent Effect shown
| compound | experimental_endpoint | test_value |
| --- | --- | --- |
| Cc1nc(CN2CCc3ncnc(-c4ccc(F)cc4)c3CC2)cs1 | Percent Effect | 10.8 |
| O=C(NCc1cccnc1)C1CC(=O)N(CC2CC2)C1 (stereo unspecified) | Percent Effect | 15.6 |
| O=c1nc(SCc2cccnc2)c2c(n1CCO)CCC2 | Percent Effect | 13.7 |
| O=C(Nc1cccc(CN2CCOC2=O)c1)N1CCSCC1 | Percent Effect | 12.5 |
| Cn1cnnc1S(=O)(=O)C1CCN(S(=O)(=O)c2c(Cl)cccc2Cl)CC1 | Percent Effect | 0 |

For every listed record, write down its Percent Effect.
1. Cc1cccc(COC[C@H]2CC[C@H]3[C@H](CCN3C(=O)CC3CC3)O2)n1
2. O=C(Cn1ccc2ccc(Br)cc21)NCc1ccc(C(=O)O)cc1
3. CC(C)c1n[nH]c(C2CN(C(=O)CCn3ccccc3=O)CCO2)n1 (stereo unspecified)
4. N#Cc1cccc(NC(=O)N[C@H](CO)c2ccccc2)c1
5. O=C(C1CC1)N1CCCC1C1CCN(Cc2ccccc2)CC1 (stereo unspecified)

[10.7, -5.26, 1.27, 5.41, 2.63]

What measured Percent Effect goes with CCn1c(Cn2cncn2)nnc1C1CCN(C(=O)CCSC)CC1 ?
2.7
